Reported growth inhibition values for a set of molecules
- assay.notes: NCI Yeast Anticancer Drug Screen. Data for the sgs1 mgt1 strain (AID 161);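 note: 0% = growth of cultures given vehicle only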
- cond: S. cerevisiae sgs1 mgt1 strain, at 50.0 µM, active compounds read high
About 79,000 compounds went through this panel and 15% of them were active in at least one assay; those are over-represented in the sample as a whole.
A number alone suffices; assume %.

molecule=O=C1C=C(c2ccccc2)O/C1=C/C(=O)c1ccc(Cl)cc1 assay_readout="growth inhibition" unit_tag=% reading=79
molecule=CC[C@@]1(OP(=O)(O)O)C(=O)OCc2c1cc1n(c2=O)Cc2cc3ccccc3nc2-1 assay_readout="growth inhibition" unit_tag=% reading=80.7
molecule=O=[N+]([O-])c1ccc(Cl)c(C(Nc2nncs2)Nc2nncs2)c1 assay_readout="growth inhibition" unit_tag=% reading=61.7
molecule="CCCCCCCCCCCC[N+](C)(CCS(=O)(=O)[O-])Cc1ccccc1 (configuration not stated)" assay_readout="growth inhibition" unit_tag=% reading=41.9
molecule="CC(CN(C)C)C(/C=C/c1ccc(Cl)c(Cl)c1)=N\\Nc1ccccc1 (configuration not stated)" assay_readout="growth inhibition" unit_tag=% reading=49.3

stdin: Reported growth inhibition for Cc1cc2nc3n(c2cc1C)C(c1c(F)cccc1F)SC3 (configuration not stated) : what is it?
stdout: 9.1

stdin: Using the record for C=C(C)C1CC2=C(O1)C(=O)c1ccccc1C2=O (configuration not stated) , report its growth inhibition.
stdout: 73

stdin: # input molecule: CN(C)c1ccc(-c2c(C#N)c(S)n(NS(=O)(=O)c3ccccc3)c(=O)c2C#N)cc1 ; wanted: its growth inhibition
stdout: 61.2

stdin: So what does the record say about growth inhibition for O=c1c(Cl)nsnc1Cl ?
stdout: 99.6

stdin: Could you share which growth inhibition value was measured for O=C(CC(O)(c1ccccc1)c1ccc(Cl)cc1)NC(=O)c1ccccc1O (configuration not stated) ?
stdout: 91.6

stdin: Can you look up the measured growth inhibition of COc1ccc(C2SCC(=O)N2c2ccc(-c3ccc(-n4c(-c5ccccc5)nc5ccccc5c4=O)cc3)cc2)cc1 (configuration not stated) for me?
stdout: 57.4

stdin: What value of growth inhibition has been reported for the following molecule? O=C(O)/C(Cl)=C(/Cl)C(=O)Nc1cccc(Cl)c1
stdout: 88.6

stdin: // returns reported growth inhibition for input OCCC1CCN(CC/C=C2/c3ccc(F)cc3Sc3ccc(C(F)(F)F)cc32)CC1
stdout: 82.6

stdin: Data request, read-out growth inhibition, for Nc1ccc(-c2cccc(-c3ccccc3)c2)cc1
stdout: 96.2

stdin: # input molecule: CCOC(=O)NC(NNc1ccc([N+](=O)[O-])cc1[N+](=O)[O-])(C(F)(F)F)C(F)(F)F ; wanted: its growth inhibition
stdout: 98.4

stdin: // lookup growth inhibition for COc1cc(C(=O)C=[N+]=[N-])c([N+](=O)[O-])c(OC)c1OC
stdout: 91.8

stdin: What value of growth inhibition has been reported for the following molecule? O=C1C/C(=C\c2ccccc2)C(=O)c2ccccc2N1
stdout: 76

stdin: I have this molecule here, O=S(=O)(Sc1ccccc1)C(c1ccccc1)c1ccccc1 , and I need its recorded growth inhibition.
stdout: 14.1
